Values from ChEMBL document CHEMBL6134887

# measurementNotes: Metabolic stability in mouse liver assessed as intrinsic clearance at 1 uM measured up to 60 mins by LC-MS/MS analysis
# Format: ADME, tissue-based
# protocolConditions: read-out: CLH
Param label: returns fulfilled when CLint scaled at 1 µM < 500 L/h/kg, returns not fulfilled otherwise, including exact equality.

Please review the following examples before continuing.
# compound, classAssignment
rows = [
    ("C=C[C@]1(C)C[C@@H](OC(=O)Cn2cc(-c3cncc(C(=O)Nc4ccc(N)nc4)c3)nn2)[C@]2(C)[C@H](C)CC[C@]3(CCC(=O)[C@H]32)[C@@H](C)[C@@H]1O", "not fulfilled"),
    ("C=C[C@]1(C)C[C@@H](OC(=O)Cn2cc(-c3ccc(Cn4cnc5c(N)ncnc54)cc3)nn2)[C@]2(C)[C@H](C)CC[C@]3(CCC(=O)[C@H]32)[C@@H](C)[C@@H]1O", "not fulfilled"),
    ("C=C[C@]1(C)C[C@@H](OC(=O)Cn2cc(-c3ccc(C(=O)c4ccc5c(N)ncnn45)cn3)nn2)[C@]2(C)[C@H](C)CC[C@]3(CCC(=O)[C@H]32)[C@@H](C)[C@@H]1O", "not fulfilled"),
    ("C=C[C@]1(C)C[C@@H](OC(=O)Cn2cc(-c3ccc(Cn4cnc5c(N)ncnc54)c(O)c3)nn2)[C@]2(C)[C@H](C)CC[C@]3(CCC(=O)[C@H]32)[C@@H](C)[C@@H]1O", "not fulfilled"),
    ("C=C[C@]1(C)C[C@@H](OC(=O)Cn2cc(-c3cccc(Nc4cc(N)ncn4)c3)nn2)[C@]2(C)[C@H](C)CC[C@]3(CCC(=O)[C@H]32)[C@@H](C)[C@@H]1O", "fulfilled"),
]

# input for lookup
Check if CLint scaled at 1 µM falls below 500 L/h/kg for C=C[C@]1(C)C[C@@H](OC(=O)Cn2cc(-c3ccc(C(O)c4ccc5c(N)ncnn45)nc3)nn2)[C@]2(C)[C@H](C)CC[C@]3(CCC(=O)[C@H]32)[C@@H](C)[C@@H]1O (some centres undefined) .
fulfilled
